Recorded measurements of TGI, one per entry
System: SW-620 colon
protocol-notes: NCI tumour cell line growth inhibition, 48 h

- molecule: "O=C(NCCCN(CCCCN(CCCNC(=O)C(F)(F)F)CCCc1ccccc1)CCCc1ccccc1)C(F)(F)F"
  test-target: "SW-620 colon"
  TGI: "3.93 µM"
- molecule: "N#C/C=C(\\c1ccc([N+](=O)[O-])cc1)n1nnc2cc(Cl)c(Cl)cc21"
  test-target: "SW-620 colon"
  TGI: "4.15 µM"
- molecule: "COc1ccc(OC)c(C2Cc3cnc4nc(N)nc(N)c4c3C2)c1 (stereo unspecified)"
  test-target: "SW-620 colon"
  TGI: "> 100 µM"
- molecule: "O=C1CC(C[C@H](O)C2CCCCC2O)CC(=O)N1Cc1ccccc1 (stereo partly specified)"
  test-target: "SW-620 colon"
  TGI: "> 100 µM"
- molecule: "O=C(NCCCCN=c1cccccc1NCCCCNC(=O)OCc1ccccc1)OCc1ccccc1"
  test-target: "SW-620 colon"
  TGI: "41.7 µM"
- molecule: "O=C(O)c1cccnc1"
  test-target: "SW-620 colon"
  TGI: "> 100 µM"
- molecule: "C=CCCCCCCCCCCC1(O)C=CC2=[N+](CCCCCN=C(N)N)CCCN21 (stereo unspecified)"
  test-target: "SW-620 colon"
  TGI: "24.2 µM"
- molecule: "Cc1ccc(-c2c3c(n(C4OC(CO)C(O)C(O)C4O)c(=S)c2C#N)CC(C)(C)CC3=O)cc1 (stereo unspecified)"
  test-target: "SW-620 colon"
  TGI: "> 100 µM"
- molecule: "CC(=O)OC12c3ccccc3-c3ccccc3C1C1C(=O)N(C)C(=O)C12Cl (stereo unspecified)"
  test-target: "SW-620 colon"
  TGI: "> 10 µM"
- molecule: "O=[N+]([O-])c1ccc(S(=O)(=O)N=Ic2ccccc2)cc1"
  test-target: "SW-620 colon"
  TGI: "> 100 µM"
- molecule: "CCOC(=O)C1=C(N)Oc2ccc(Br)cc2C1C(C#N)C(=O)OCC (stereo unspecified)"
  test-target: "SW-620 colon"
  TGI: "43.2 µM"
- molecule: "O=C(CSc1nnc(-c2ccc(N=Cc3ccc(Cl)cc3)cc2)o1)Nc1ccc(Cl)cc1"
  test-target: "SW-620 colon"
  TGI: "> 100 µM"
- molecule: "c1ccc(SC2CCSc3ccccc3C2Sc2ccccc2)cc1 (stereo unspecified)"
  test-target: "SW-620 colon"
  TGI: "> 100 µM"
- molecule: "O=c1c2c(-c3ccccc3)onc2n(-c2ccccc2)c(=O)n1-c1ccccc1"
  test-target: "SW-620 colon"
  TGI: "> 100 µM"
- molecule: "COc1cc(C2c3cc4c(cc3C(O)C(CO)C2CO)OCO4)cc(OC)c1OC (stereo unspecified)"
  test-target: "SW-620 colon"
  TGI: "> 100 µM"
- molecule: "CC1(C)OC2C(O)CN3CCS[C@H]3C2O1 (stereo partly specified)"
  test-target: "SW-620 colon"
  TGI: "> 100 µM"
- molecule: "Cc1ccc(-c2cc(-c3ccc(Cl)cc3)nc(/N=C3\\C(=O)N(CN4CCOCC4)c4ccc(Cl)cc43)n2)cc1"
  test-target: "SW-620 colon"
  TGI: "> 100 µM"
- molecule: "COc1ccc(CN(Cc2ccc(OC)cc2)C(=O)CC2(O)C=CCC2)cc1 (stereo unspecified)"
  test-target: "SW-620 colon"
  TGI: "> 100 µM"
- molecule: "COc1ccc(C(OC(C)=O)C2C(=C(C#N)C#N)c3ccccc3C2=C(C#N)C#N)cc1 (stereo unspecified)"
  test-target: "SW-620 colon"
  TGI: "> 100 µM"
- molecule: "C=CCc1cccc(/C=N/NC(=O)CN2CCN(Cc3ccccc3)CC2)c1O"
  test-target: "SW-620 colon"
  TGI: "17.1 µM"
- molecule: "O=P(O)(Cc1ccccc1)c1ccccc1-c1ccccc1"
  test-target: "SW-620 colon"
  TGI: "> 100 µM"
